Kindly state IC50 for each of the entries shown.
System: HL60 cells
Experiment: HL60 cell proliferation assay (CellTiter-Glo)
Format: cell-based
Settings: Homo sapiens, HL-60, HL60 cell viability, 72 hours, read-out: Cell Line (IC50, nM) HL60

input: Would you kindly share the measured IC50 for COc1ncnc(OC)c1-c1cc2cc(NC(=O)[C@@H]3C[C@H]3CN3CCN(C)CC3)ncc2n1C (single isomer, unassigned) [Compound 125] ?
output: > 10000 nM

input: Quick one: IC50 for CCc1ncccc1-c1cc2cc(NC(=O)[C@@H]3C[C@@H]3F)ncc2n1C [Compound 112] ?
output: > 10000 nM

input: Would you kindly share the measured IC50 for [2H]C([2H])([2H])n1c(-c2cc(F)cnc2OC)cc2cc(NC(=O)[C@@H]3C[C@@H]3F)ncc21 [Compound 65] ?
output: > 10000 nM

----------
Target: ABL1 (T315I) (Homo sapiens, UniProt P00519, T315I)
Assay: Luminescence-based ABL kinase assay (300 μM ATP), ADP-Glo
Assay type: biochemical
Counter-ions that a name gives are not always drawn.
Threshold 30 nM: IC50 strictly smaller gives satisfied, otherwise not satisfied.

input: Would you kindly verify if IC50 of COc1ncnc(O)c1-c1cc2cc(NC(=O)[C@@H]3C[C@@H]3F)ncc2n1C is strictly less than 30 nM?
output: not satisfied

input: For Cn1c(-c2cccc3[nH]cnc23)cc2cc(NC(=O)[C@@H]3C[C@@H]3F)ncc21 , is the recorded IC50 below the cut-off of 30 nM?
output: not satisfied

input: Strictly below 30 nM in IC50? CCN1CCN(CCNC(=O)Nc2cc3cc(-c4c(OC)ncc(F)c4OC)n(C)c3cn2)CC1
output: not satisfied

input: # TODO verify IC50 < 30 nM strictly for this molecule: COc1nc(O)nc(OC)c1-c1cc2cc(NC(=O)[C@@H]3C[C@@H]3F)ncc2n1C
output: satisfied

input: Please check: IC50 for COc1ccccc1-c1cc2cc(NC(=O)C3CC3)ncc2n1C , strictly under 30 nM or not?
output: satisfied

input: Find out if reported IC50 for COc1cc2[nH]cnc2cc1-c1cc2cc(NC(=O)[C@@H]3C[C@@H]3F)ncc2n1C [Compound 28, formate] is less than 30 nM
output: satisfied

input: Please determine if COc1ccnc(OC)c1-c1cc2cc(NC(=O)[C@@H]3C[C@H]3CN3CC4CC(C3)N4)ncc2n1C (single isomer, unassigned) [Example 135, Enantiomer 2] is below 30 nM in terms of IC50.
output: satisfied

input: Hi there! Is IC50 for COc1ncc(F)c(OC)c1-c1cc2cc(NC(=O)[C@@H]3C[C@H]3CN3CCN(C)CC3)ncc2n1C (single isomer, unassigned) below 30 nM, do you know?
output: not satisfied
